# systemName: H. influenzae TrmD (Haemophilus influenzae)
# Construct: host or cells: E. coli BL21
# Sequence (P43912 whole entry): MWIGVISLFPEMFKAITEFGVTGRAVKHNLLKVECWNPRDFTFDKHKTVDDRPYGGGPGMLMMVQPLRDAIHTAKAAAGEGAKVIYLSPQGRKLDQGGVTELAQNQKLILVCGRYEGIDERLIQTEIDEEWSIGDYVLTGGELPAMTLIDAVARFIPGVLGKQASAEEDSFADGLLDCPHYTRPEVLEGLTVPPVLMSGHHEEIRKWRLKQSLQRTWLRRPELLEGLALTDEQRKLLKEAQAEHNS
# assayProcedure: Isothermal titration calorimetry (ITC) on H. influenzae TrmD
# Type: binding
The entries below are paired with their reported Kd.
State the result as a value with its unit after it.

lineNotation | systemName | Kd
Oc1ncnc2scc(-c3ccccc3)c12 | H. influenzae TrmD (Haemophilus influenzae) | 24.3 µM

Here is the next item to consider.
Prompt line: // Kd lookup, key: "NCc1ccc(CNC(=O)c2csc3nc[nH]c(=O)c23)cc1"
Response line: 4.55 µM

====

# systemName: S. aureus TrmD (Staphylococcus aureus, UniProt Q2FZ43)
# Construct: made in house; host or cells: E. coli BL21
# Sequence (Q2FZ43 whole entry): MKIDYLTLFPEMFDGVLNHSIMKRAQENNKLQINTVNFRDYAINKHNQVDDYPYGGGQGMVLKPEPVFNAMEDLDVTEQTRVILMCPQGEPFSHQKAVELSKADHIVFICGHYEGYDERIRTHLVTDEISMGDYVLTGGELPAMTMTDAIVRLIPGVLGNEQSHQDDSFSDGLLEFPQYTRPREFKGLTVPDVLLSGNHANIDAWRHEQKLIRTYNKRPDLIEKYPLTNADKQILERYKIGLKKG
# assayProcedure: nanoSAR direct-to-biology FP displacement screening of crude triazoles
# Format: binding
# cond: crude triazole at 1 μM, assuming full conversion; 500 nM TrmD, 10 nM tracer 4; read-out: % displaced tracer
attributeMeasured: inhibition at 1 µM (%)
Unit % implied. Number only.

Worked cases, inhibition at 1 µM given:
molecule | unitsSymbol | inhibition at 1 µM
N[C@@H]1CCC[C@@H]1Cn1cc(-c2c[nH]c3nc[nH]c(=O)c23)nn1 [Compound 8e] | % | 93
O=c1[nH]cnc2[nH]cc(-c3cn([C@H]4C=CCCCC4)nn3)c12 [Compound 04B01] | % | 32
Cc1cc(F)cc(-n2cc(-c3c[nH]c4nc[nH]c(=O)c34)nn2)c1 [Compound 03C04] | % | 17
O=c1[nH]cnc2[nH]cc(-c3cn(CC4CCC=CCC4)nn3)c12 [Compound 02G01] | % | 71
O=c1[nH]cnc2[nH]cc(-c3cn(Cc4ccc(Cl)s4)nn3)c12 [Compound 04C02] | % | 92

Prompt line: Could you tell me which inhibition at 1 µM is on file for O=c1[nH]cnc2[nH]cc(-c3cn(C[C@H]4CCNC4)nn3)c12 [Compound 03C12] ?
Response line: 74

Prompt line: For CC1(Cn2cc(-c3c[nH]c4nc[nH]c(=O)c34)nn2)COC1 [Compound 01H02] then?
Response line: 58

Prompt line: Query O=c1[nH]cnc2[nH]cc(-c3cn(CC[C@@H]4CCCC4(F)F)nn3)c12 [Compound 02D11] next
Response line: 75

Taken from paper PMC12751012.
